target: Small conductance calcium-activated potassium channel (Rattus norvegicus, UniProt P70604+P70606+P70605); experiment: Displacement of [125I]apamin from SK channel in Wistar rat cortex
Category scheme (Ki): low end: < 40 nM; middle: ≥ 40 nM and < 100 nM; high end: ≥ 100 nM

COc1cc2cc[n+](C)c(Cc3ccccc3Cc3c4cc(OC)c(OC)cc4cc[n+]3C)c2cc1OC.[I-].[I-]	low end
C[n+]1ccc2ccccc2c1CCCCCc1c2ccccc2cc[n+]1C.[I-].[I-]	high end
COc1cc2cc[n+](C)c(Cc3ccccc3Cc3c4c(OC)c(OC)c(OC)cc4cc[n+]3C)c2c(OC)c1OC.[I-].[I-]	low end
COc1cc2cc[n+](C)c(Cc3cccc(Cc4c5c(OC)c(OC)c(OC)cc5cc[n+]4C)c3)c2c(OC)c1OC.[I-].[I-]	low end
COc1cc2cc[n+](C)c(CCCc3c4c(OC)c(OC)c(OC)cc4cc[n+]3C)c2c(OC)c1OC.[I-].[I-]	middle
COc1cc2cc[n+](C)c(Cc3cccc(Cc4c5cc(OC)c(OC)cc5cc[n+]4C)c3)c2cc1OC.[I-].[I-]	high end
C[n+]1ccc2ccccc2c1CCCCc1c2ccccc2cc[n+]1C.[I-].[I-]	high end
COc1cc2cc[n+](C)c(CCCc3c4cc(OC)c(OC)cc4cc[n+]3C)c2cc1OC.[I-].[I-]	high end
COc1cc2cc[n+](C)c(CCCCc3c4c(OC)c(OC)c(OC)cc4cc[n+]3C)c2c(OC)c1OC.[I-].[I-]	middle
C[n+]1ccc2ccccc2c1Cc1cccc(Cc2c3ccccc3cc[n+]2C)c1.[I-].[I-]	high end

---

target: Small conductance calcium-activated potassium channel (Rattus norvegicus, UniProt P70604+P70606+P70605); experiment: Displacement of [125I]apamin from SK channel in Wistar rat cortex
# Ki values compiled below
VALUE KIND: Ki (nM)

Cc1cc(N)c2ccccc2[n+]1CCCCCCCCCC[n+]1c(C)cc(N)c2ccccc21.[Cl-].[Cl-] [DEQUALINIUM CHLORIDE]	221
C[n+]1ccc2ccccc2c1CCCc1c2ccccc2cc[n+]1C.[I-].[I-]	1687
COc1cc2cc[n+](C)c(CCCCCc3c4cc(OC)c(OC)cc4cc[n+]3C)c2cc1OC.[I-].[I-]	150
COc1cc2cc[n+](C)c(Cc3ccc(Cc4c5cc(OC)c(OC)cc5cc[n+]4C)cc3)c2cc1OC.[I-].[I-]	163
C[n+]1ccc2ccccc2c1Cc1ccccc1Cc1c2ccccc2cc[n+]1C.[I-].[I-]	438
COc1cc2cc[n+](C)c(CCCCc3c4cc(OC)c(OC)cc4cc[n+]3C)c2cc1OC.[I-].[I-]	164
COc1cc2cc[n+](C)c(Cc3ccc(Cc4c5c(OC)c(OC)c(OC)cc5cc[n+]4C)cc3)c2c(OC)c1OC.[I-].[I-]	280
C[n+]1ccc2ccccc2c1Cc1ccc(Cc2c3ccccc3cc[n+]2C)cc1.[I-].[I-]	1103

---

target: Small conductance calcium-activated potassium channel (Rattus norvegicus, UniProt P70604+P70606+P70605); assay: Blockade of SK channel in Wistar rat brain assessed as inhibition of apamin-sensitive after-hyperpolarisation
VALUE KIND: IC50 (µM)

COc1cc2cc[n+](C)c(Cc3ccccc3Cc3c4c(OC)c(OC)c(OC)cc4cc[n+]3C)c2c(OC)c1OC.[I-].[I-]	4.1
COc1cc2cc[n+](C)c(CCCCc3c4c(OC)c(OC)c(OC)cc4cc[n+]3C)c2c(OC)c1OC.[I-].[I-]	4.4
COc1cc2cc[n+](C)c(Cc3cccc(Cc4c5c(OC)c(OC)c(OC)cc5cc[n+]4C)c3)c2c(OC)c1OC.[I-].[I-]	2.4
COc1ccc(C[C@H]2c3cc(OC)c(OC)cc3CC[N+]2(C)C)cc1OC.[I-] [LAUDANOSINE METHIODIDE]	15
COc1cc2cc[n+](C)c(Cc3ccccc3Cc3c4cc(OC)c(OC)cc4cc[n+]3C)c2cc1OC.[I-].[I-]	3.8
